- Test system: normal human bronchial epithelial cells (NHBE)
- test-conditions: human
reported-property: CC50

Please review the following examples before continuing.
{"given-smiles": "Cn1cc(-c2cc(-c3cc(Cl)c(F)c(OCc4ccccc4Cl)c3)c(=O)n(-c3cccnc3)c2)c(=O)[nH]c1=O", "test-system": "normal human bronchial epithelial cells (NHBE)", "CC50": "> 32.5 µM"}
{"given-smiles": "Cn1cc(-c2cc(-c3cc(Cl)cc(OCCC(F)(F)F)c3)c(=O)n(-c3cccnc3)c2)c(=O)[nH]c1=O", "test-system": "normal human bronchial epithelial cells (NHBE)", "CC50": "~95 µM"}
{"given-smiles": "O=c1[nH]cc(-c2cc(-c3cc(Cl)cc(OCc4scnc4C(F)(F)F)c3)c(=O)n(-c3cccnc3)c2)c(=O)[nH]1", "test-system": "normal human bronchial epithelial cells (NHBE)", "CC50": "> 100 µM"}

# batch size: 5; output CC50 per entry
1. Cc1scnc1COc1cc(Cl)cc(-c2cc(-c3c[nH]c(=O)[nH]c3=O)cn(-c3cccnc3)c2=O)c1
2. O=c1[nH]cc(-c2cc(-c3cc(Cl)cc(OCc4ocnc4C(F)(F)F)c3)c(=O)n(-c3cccnc3)c2)c(=O)[nH]1
3. Cn1cc(-c2cc(-c3cc(Cl)cc(OCC4CC4)c3)c(=O)n(-c3cccnc3)c2)c(=O)[nH]c1=O
4. Cn1cc(-c2cc(-c3cc(Cl)cc(OCc4scnc4C(F)(F)F)c3)c(=O)n(-c3cccnc3)c2)c(=O)[nH]c1=O
5. O=c1[nH]cc(-c2cc(-c3cc(Cl)c(F)c(OCc4ccccc4Cl)c3)c(=O)n(-c3cccnc3)c2)c(=O)[nH]1

22 µM
> 100 µM
> 100 µM
> 100 µM
> 95 µM
